All values here come from paper PMC6268181.

Biological target: human IP receptor (PGI2 receptor) (Homo sapiens)
Sequence (P43119 1-383): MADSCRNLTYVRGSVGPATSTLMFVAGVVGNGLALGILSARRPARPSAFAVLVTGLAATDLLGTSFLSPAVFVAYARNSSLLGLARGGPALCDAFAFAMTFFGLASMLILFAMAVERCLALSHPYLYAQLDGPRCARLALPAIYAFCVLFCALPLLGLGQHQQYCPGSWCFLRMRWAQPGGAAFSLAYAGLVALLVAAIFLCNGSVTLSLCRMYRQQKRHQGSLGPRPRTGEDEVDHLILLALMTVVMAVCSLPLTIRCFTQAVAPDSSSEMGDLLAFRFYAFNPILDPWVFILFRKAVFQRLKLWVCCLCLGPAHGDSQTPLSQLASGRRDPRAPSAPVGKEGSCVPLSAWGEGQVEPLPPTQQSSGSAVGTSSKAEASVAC
Assay: competitive binding assay with membrane fractions of CHO or COS-7 cells expressing the receptor; also cAMP increase in COS-7 cells expressing human IP
REPORTED_METRIC: pKi
Please note pKi is a logarithmic value: minus log10 of concentration in mol/L. Answer with that number alone.

What does the data say about its pKi? Entry: O=C(O)COC1CCN(CCN(C(=O)c2ccc3c(c2)OCO3)c2ccc(Cl)cc2)CC1
6.51
